Entry source: paper PMC12416549

Molecular target: T1, TNFR1 (Homo sapiens, UniProt P19438)
T1 chain: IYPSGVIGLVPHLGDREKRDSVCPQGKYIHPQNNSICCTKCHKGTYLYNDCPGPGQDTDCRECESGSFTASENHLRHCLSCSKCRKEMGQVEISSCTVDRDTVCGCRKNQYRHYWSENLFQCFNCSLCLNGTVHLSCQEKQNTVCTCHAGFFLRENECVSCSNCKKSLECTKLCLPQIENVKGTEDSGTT
Assay: yeast display SC50
Field: apparent Kd (screen). Provide a value for each of the binders that follow.
Param answer (str): number followed by unit.

-- ask Given D59S (designed binder) MTLQELLREEALRRAEAEAFRYALELLAEKFPEQKEYLLDLAEEIESQIRSLSGVDVESVRKFLDKEWAWVKELLAEHPAELAEVEAARAARLAELRAEVEAKVAA , state its recorded apparent Kd (screen).
-- reply 539 pM

-- ask Given A28F (designed binder) MTLQELLREEALRRAEAEAFRYALELLFEKFPEQKEYLLDLAEEIESQIRSLSGVDVEDVRKFLDKEWAWVKELLAEHPAELAEVEAARAARLAELRAEVEAKVAA , state its recorded apparent Kd (screen).
-- reply 12500 pM

-- ask Given E99A (designed binder) MTLQELLREEALRRAEAEAFRYALELLAEKFPEQKEYLLDLAEEIESQIRSLSGVDVEDVRKFLDKEWAWVKELLAEHPAELAEVEAARAARLAELRAAVEAKVAA , state its recorded apparent Kd (screen).
-- reply 1270 pM

-- ask Given M1E (designed binder) ETLQELLREEALRRAEAEAFRYALELLAEKFPEQKEYLLDLAEEIESQIRSLSGVDVEDVRKFLDKEWAWVKELLAEHPAELAEVEAARAARLAELRAEVEAKVAA , state its recorded apparent Kd (screen).
-- reply 593 pM
